System: RBE (R132S) 3D cellular spheroids
Assay: 2-HG production, spheroids (3D), RBE
Assay type: cell-based
Settings: Homo sapiens; 3D spheroid, mass spec
Label TRUE when EC50 is strictly below 0.5 µM; otherwise label FALSE.

Input line: Please check: EC50 for COc1c(C)cc(NC(=O)c2nn(Cc3ccc(F)cc3)c3c2CN(C(=O)c2ccc[nH]2)C[C@]3(C)C(N)=O)cc1C , strictly under 0.5 µM or not?
Output line: TRUE

Input line: Please check: EC50 for CC(=O)N1CCN(Cc2ccc([C@H](C)Nc3nccc(N4C(=O)OC[C@@H]4C(C)C)n3)cc2)CC1 , strictly under 0.5 µM or not?
Output line: FALSE

Input line: Please check: EC50 for Cc1ccccc1[C@@H](C(=O)NC1CCCC1)N(C(=O)Cn1cnc2ccccc21)c1cccc(F)c1 , strictly under 0.5 µM or not?
Output line: TRUE

Input line: Please check: EC50 for CC(C)[C@H]1COC(=O)N1c1ccnc(N[C@@H](C)c2ccc(C(=O)NC3CCCC3)c(Cl)c2)n1 , strictly under 0.5 µM or not?
Output line: FALSE

Input line: Please check: EC50 for Cc1ccccc1C(C(=O)NC1CCCCC1)N(C(=O)Cn1cnc2ccccc21)c1cccc(F)c1 (stereo not drawn) , strictly under 0.5 µM or not?
Output line: TRUE

Input line: Please check: EC50 for Cc1ccccc1C(C(=O)NC1CCCCC1)N(C(=O)Cn1ccnc1C)c1cccc(F)c1 (stereo not drawn) , strictly under 0.5 µM or not?
Output line: FALSE

Input line: Please check: EC50 for CC(C)[C@H]1COC(=O)N1c1ccnc(N[C@@H](C)c2ccc(CN3CCC(F)(F)CC3)cc2)n1 , strictly under 0.5 µM or not?
Output line: TRUE

Input line: Please check: EC50 for CC(C)(C)CC(C)(C)c1cc(Cn2ccnc2)c(O)c(Cn2ccnc2)c1 , strictly under 0.5 µM or not?
Output line: FALSE

Input line: Please check: EC50 for N#Cc1ccnc(N2C(=O)CC[C@H]2C(=O)N(c2cncc(F)c2)[C@H](C(=O)NC2CC(F)(F)C2)c2ccccc2Cl)c1 , strictly under 0.5 µM or not?
Output line: TRUE
